Biological target: DDR1 kinase (Homo sapiens)
Sequence (Q08345 19-913): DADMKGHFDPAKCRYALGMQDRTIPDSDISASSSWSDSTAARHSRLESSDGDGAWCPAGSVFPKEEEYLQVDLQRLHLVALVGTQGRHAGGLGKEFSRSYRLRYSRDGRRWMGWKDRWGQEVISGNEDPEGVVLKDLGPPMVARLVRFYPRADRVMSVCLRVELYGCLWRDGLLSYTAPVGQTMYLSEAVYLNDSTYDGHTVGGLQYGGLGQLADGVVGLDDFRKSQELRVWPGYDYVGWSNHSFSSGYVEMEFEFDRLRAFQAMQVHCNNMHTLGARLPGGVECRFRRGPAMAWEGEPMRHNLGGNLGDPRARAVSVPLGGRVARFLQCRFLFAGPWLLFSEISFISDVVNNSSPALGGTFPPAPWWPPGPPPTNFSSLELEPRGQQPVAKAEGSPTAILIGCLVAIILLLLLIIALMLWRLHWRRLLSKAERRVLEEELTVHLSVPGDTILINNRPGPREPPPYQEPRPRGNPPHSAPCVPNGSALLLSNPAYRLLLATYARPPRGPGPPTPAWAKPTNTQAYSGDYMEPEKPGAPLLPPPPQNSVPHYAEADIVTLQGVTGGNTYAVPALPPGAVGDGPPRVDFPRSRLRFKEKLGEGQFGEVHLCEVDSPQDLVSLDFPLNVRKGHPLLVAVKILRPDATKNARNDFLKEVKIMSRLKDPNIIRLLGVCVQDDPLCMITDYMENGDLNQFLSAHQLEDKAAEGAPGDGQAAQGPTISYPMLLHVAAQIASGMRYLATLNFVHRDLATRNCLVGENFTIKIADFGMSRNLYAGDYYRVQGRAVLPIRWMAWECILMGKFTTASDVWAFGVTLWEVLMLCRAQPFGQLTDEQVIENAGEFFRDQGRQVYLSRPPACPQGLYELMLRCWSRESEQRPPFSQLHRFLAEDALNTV
Assay: Evaluation of DDR1 kinase inhibition in DDR1-expressing U2OS cells (type I collagen stimulation, PathHunter detection)
Assay type: cell-based
Set-up: host or cells: U2OS
Settings: type I collagen 50 µg/mL stimulation, duplicate, read-out: DDR-1 IC50
pIC50: −log10 of the molar value. Counter-ions that a name gives are not always drawn.
QUANTITY MEASURED: pIC50

Exercise: Would you kindly share the measured pIC50 for Nc1cc(C(=O)N2CC(c3nn(CC(=O)N4CCO[C@H](C(F)(F)F)C4)c4cc(F)cc(F)c34)C2)ccn1 [Compound E-82] ?
Solution: 6.89

a: Nc1cc(C(=O)N2CCC(c3cn(CC(=O)N4CCC[C@H]4C(F)(F)F)c4cccc(F)c34)CC2)ccn1 [Compound E-108]
b: Nc1cc(C(=O)N2CC(c3nn(CC(=O)N4CCC[C@@H]4C(F)(F)F)c4cc(F)cc(F)c34)C2)ccn1 [Compound E-50]
Exercise: Select one. Lower pIC50: a or b The response must carry the label of the picked entry.
Solution: b

P: Nc1cc(C(=O)N2CC(c3nn(CC(=O)NC4CC(F)(F)C4)c4ccccc34)C2)ccn1 [Compound E-214]
Q: Nc1cc(C(=O)N2CC(c3nn(CC(=O)N4CCO[C@@H](C(F)(F)F)C4)c4cncc(F)c34)C2)ccn1 [Compound E-100]
R: O=C(c1ccnc(NC2CC2)c1)N1CC(c2nn(CC(=O)N3CCC[C@H]3C(F)(F)F)c3cc(F)cc(F)c23)C1 [Compound E-72, hydrochloride]
S: Nc1cc(C(=O)N2CC(c3nn(CC(=O)N4CCC[C@H]4C(F)(F)F)c4cc(F)ccc34)C2)c(F)cn1 [Compound E-275]
Exercise: Hello, I need these entries ordered by pIC50, highest reading first. Thanks! Respond with the label ranking, as requested.
Solution: S, Q, R, P
